measurement_notes: NCI Yeast Anticancer Drug Screen. Data for the cln2 rad14 strain (AID 165);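 further: 0% = growth equal to vehicle treated cultures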
settings: S. cerevisiae cln2 rad14 strain, at 50.0 µM (retest, dose inferred, filed as 5.0), hits give high values
This is part of a sample that, as a whole, favours compounds with a hit. Of some 79,000 tested, about 15% had one in any assay.
measured_metric: growth inhibition (%)
Give bare numbers, in %.

                                   compound    measured_metric  observed_result
0  CC(C)CC(CC(C)C)NCC(C)OC(=O)C(c1ccccc1)c1ccccc1 (stereo unspecified)  growth inhibition               73

Look at each compound and report its growth inhibition.
1. COC1=CC(=O)c2c(ccc3ncnc(N)c23)C1=O
2. CC1(c2ccc(F)cc2)OC(=O)c2c1ccc1ccccc21 (stereo unspecified)
3. COc1cc(C=O)c(C=O)cc1OC
4. Cc1ccc(SCN2CCCCC2)cc1 (tested in a mixture with another compound)
5. CCCCc1c2c(nc3c1CC/C(=C\c1ccc([N+](=O)[O-])cc1)C3=O)CCCC2

Response line:
1. 32
2. 70
3. 84
4. 18
5. 93

====

measurement_notes: NCI Yeast Anticancer Drug Screen. Data for the rad50 strain (AID 155);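 further: 0% = growth of vehicle-only cultures of the same strain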
settings: S. cerevisiae rad50 strain growth inhibition; at 50.0 µM (retest, dose inferred, filed as 5.0); hits give high values
About 79,000 compounds went through this panel and 15% of them were active in at least one assay; those are over-represented in the sample as a whole.
measured_metric: growth inhibition (%)
One number for each entry, in %.

Some solved cases for reference:
In [3]: df
Out[3]:
                                   compound  result_units  observed_result
0             O=C(Oc1ccccc1)c1ccc2ccccc2c1O             %              -38
1  CN(Cc1cnc2nc(N)nc(N)c2n1)c1ccc(C(=O)NC(CCC(=O)O)C(=O)O)cc1C(F)(F)F (stereo not given)             %               76
2           O=C(O)c1cc2c3ccccc3sc2c2ccccc12             %                4
3   CC1CCC2(CC1)OCC(C)O2 (stereo not given)             %                1
4  CC[C@H]1CN2CCc3cc(OC)c(OC)cc3[C@@H]2C[C@@H]1C[C@H]1NCCc2cc(OC)c(OC)cc21             %               12

Look at each compound and report its growth inhibition.
1. O/N=C1/CCCC/C1=C\c1ccc(Cl)c(Cl)c1
2. COc1cc(/C=C2\Sc3scc(-c4cccc([N+](=O)[O-])c4)[n+]3C2=O)cc(OC)c1OC
3. O=C1/C(=C/c2ccc([N+](=O)[O-])cc2)Sc2scc(-c3cccc([N+](=O)[O-])c3)[n+]21
4. CC(=O)c1ccc2c(c1)CC1(C2)Cc2ccccc2C1=O (stereo not given)

Response line:
1. 99
2. 94
3. 98
4. -16

Prompt line: # return recorded growth inhibition for input CCC(c1ccc(OC)cc1)C(CC)c1ccc(O)c(CN(C)C)c1 (stereo not given)
Response line: 39

====

Please respond with reported growth inhibition for every item in the list.
measurement_notes: NCI Yeast Anticancer Drug Screen. Data for the bub3 strain (AID 167)
settings: S. cerevisiae bub3 mutant strain, at 50.0 µM (retest, dose inferred, filed as 5.0), hits give high values
Compounds without any hit were thinned out: in the full panel of roughly 79,000, 15% have a hit.
Answers are plain numbers, in %.

Some solved cases for reference:
>>> df
                                   compound  observed_result
0  c1ccc([P+](Cc2ccc(C[P+](c3ccccc3)(c3ccccc3)c3ccccc3)s2)(c2ccccc2)c2ccccc2)cc1               96
1  C=C1CC(COc2ccc3c(C)cc(=O)oc3c2)(c2ccccc2)OC1=O (stereo not given)               30
2  CC(C)CCCC(=O)CCCCCCC(=O)CCN(O)C(=O)C(N)CO (stereo not given)               98
3                CCOC1(OCC)Cc2nc3ccccc3cc21               93
4        C=CS(=O)(=O)c1ccc([N+](=O)[O-])cc1               98

Look at each compound and report its growth inhibition.
1. c1ccc2c(c1)ccc1c2ccc2sc3ccccc3[n+]21
2. O=C1OC(c2ccccc2)(c2ccccc2)CC1CN1CCOCC1 (stereo not given)
3. O=C1C=CC(=O)N1c1ccc2c(c1)Cc1cc(Cl)ccc1-2
4. C/C=C/CSc1cc(NC(=S)c2ccsc2C)ccc1Cl
5. COc1ccc(C2=NN(c3ccccc3)C[N+](c3ccc(C)cc3)=N2)cc1
6. Cc1ccc(C(=O)C(CN(C)C)CN(C)C)cc1C
7. C[C@]12CC[C@H](O)CC1=CC[C@@H]1C2CC[C@]2(C)C(=O)N(N)C(=O)CC12 (stereo not given in full)
8. CN(C)c1ccc(/C=C/c2ccnc3ccccc23)c(O)c1

Response line:
1. 92
2. 93
3. 82
4. 88
5. 99
6. 94
7. 93
8. -6

====

measurement_notes: NCI Yeast Anticancer Drug Screen. Data for the rad50 strain (AID 155);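 further: 0% = growth of vehicle-only cultures of the same strain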
settings: S. cerevisiae rad50 strain growth inhibition; at 50.0 µM
This is part of a sample that, as a whole, favours compounds with a hit. Of some 79,000 tested, about 15% had one in any assay. Active and inactive are the calls of the source. Cut-off read from the data, not from the text of the source: active = growth inhibition above about 70%; inactive = the rest.
One label from this list, please: class 1 for active, class 0 for inactive

                                   compound    label
0                    OCCSCc1cc(Cl)cc(Cl)c1O  class 0
1  CCOC(=O)/C(=C\c1cccc([N+](=O)[O-])c1)C(C)=O  class 1

API: the following record is the query input.
Prompt line: For this compound, state the assay outcome: Cc1ccc(C(C)(C)c2ccc(C(=O)O)cc2)cc1
Response line: class 0

====

measurement_notes: NCI Yeast Anticancer Drug Screen. Data for the bub3 strain (AID 167)
settings: S. cerevisiae bub3 mutant strain, at 5.0 µM (retest, dose inferred, filed as 0.5), hits give high values
About 79,000 compounds went through this panel and 15% of them were active in at least one assay; those are over-represented in the sample as a whole. Where a SMILES comes first, the peptide text is derived from it. The star is where a group is joined. Fmoc = O=C(OCC1c2ccccc2-c2ccccc21)*; Boc = CC(C)(C)OC(=O)*
measured_metric: growth inhibition (%)
Numbers only, in %.

compound	observed_result
CCc1scc(C)[n+]1CC(=O)c1cccc([N+](=O)[O-])c1	12
CCCCC#CCOC(=O)c1cc([N+](=O)[O-])cc([N+](=O)[O-])c1	96
CCC[CH2][Sn]([CH2]CCC)([O]C(=O)C(OC)c1ccccc1)[O]C(=O)C(OC)c1ccccc1 (centres undefined)	77
Nc1ccc(Cl)c2c1C(=O)c1ccccc1C2=O	0
Cc1cc(Cl)cc2c1NC(=O)C2(O)C(C)C(=O)c1ccc(Cl)cc1 (centres undefined)	-4
C1=C(c2ccccc2)SC=C(c2ccccc2)S1	23
CC(=O)OCc1ccc([N+](=O)[O-])o1	-2
O=C(N/C(=C\c1ccccc1)C(=O)N1CCN(c2ccccc2)CC1)c1ccccc1	-4

Turning to the following compound.
Prompt line: # return recorded growth inhibition for input CC(C)(C)OC(=O)NCCCCC(NC(=O)OCC1c2ccccc2-c2ccccc21)C(=O)N1CCCC1C(=O)NCC(N)=O (stereo not drawn) (Fmoc-Lys(Boc)-Pro-Gly-NH2; configuration not given here)
Response line: -10

====

measurement_notes: NCI Yeast Anticancer Drug Screen. Data for the rad50 strain (AID 155);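 further: 0% = growth of vehicle-only cultures of the same strain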
settings: S. cerevisiae rad50 strain growth inhibition; at 50.0 µM (retest, dose inferred, filed as 5.0)
The panel holds about 79,000 compounds, 15% with a hit somewhere; the sample as a whole holds those more often. Activity calls are given as the source filed them. Cut-off read from the data, not from the text of the source: active = growth inhibition above about 70%; inactive = the rest.
One label from this list, please: active, inactive

Below, 4 molecules whose answers are already recorded.
In [3]: df
Out[3]:
                                   molecule     label
0  COc1cc(C2C(Cl)C(=O)N2NC(=O)c2ccc(NC(C)=O)cc2)cc(OC)c1OC (stereo not drawn)  inactive
1  CC[N](CC)[Ge]([CH2]C)[CH2]C.CC[N](CC)[Ge]([CH2]C)[CH2]C    active
2  O=C(C=P(c1ccccc1)(c1ccccc1)c1ccccc1)c1ccc(Cl)cc1    active
3            S=C(NN1CCOCC1)SSC(=S)NN1CCOCC1    active

Prompt line: For this molecule, state the assay outcome: CCCCN(CCCC)CCCC(O)c1c2ccc(Cl)cc2nc2ccc(OC)cc12 (stereo not drawn)
Response line: inactive

Prompt line: For this molecule, state the assay outcome: O=Cc1c(O)ccc2ccccc12
Response line: active

Prompt line: For this molecule, state the assay outcome: CCCCCCCC/C=C\CCCCCCCC(=O)NCC[N+](C)(C)C
Response line: active

Prompt line: For this molecule, state the assay outcome: CC1CCC(C(O)(C(=O)O)C2CCC(C)CC2)CC1 (stereo not drawn)
Response line: inactive

Prompt line: For this molecule, state the assay outcome: OC(Cn1cncn1)(Cn1cncn1)c1ccc(Cl)cc1Cl
Response line: inactive

Prompt line: For this molecule, state the assay outcome: Nc1ccccc1C(=O)/C=C/c1ccccc1
Response line: active

Prompt line: For this molecule, state the assay outcome: c1ccc(-n2c3ccccc3c3ccccc32)cc1
Response line: inactive
